Data provenance is patent US10233202B2.

method_notes: Stability in the simulated gastric fluid
Type: in vitro ADME
condition_set: 10 μM, 120 min
quantity_measured: % 120 min (residue percentage) (%)
Give bare numbers, in %.

State recorded % 120 min (residue percentage) for all listed molecules.
1. CC(C)OC(=O)[C@H](C)N[P@](=O)(CO[C@H](C)Cn1cnc2c(N)ncnc21)OCc1ccccc1 (single isomer, unassigned)
2. CC(C)OC(=O)[C@H](C)N[P@@](=O)(CO[C@H](C)Cn1cnc2c(N)ncnc21)OCc1ccccc1 (single isomer, unassigned)
3. CC(C)OC(=O)[C@H](C)N[P@](=O)(CO[C@H](C)Cn1cnc2c(N)ncnc21)Oc1ccccc1
4. Cc1ccccc1CO[P@@](=O)(CO[C@H](C)Cn1cnc2c(N)ncnc21)N[C@@H](C)C(=O)OC(C)C

Result:
[58.54, 58.07, 66.36, 51.39]
